B1: TMEM175 (parent)
chain: SCTIIFLASIFQLAMWTTALLHQA

Variants of: B1
Assay Comment: protein stability index of a GFP-peptide fusion (GPS, HEK-293T) (PSI 1-6); higher = more stable;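 further: lentivirally expressed fusions sorted by FACS into six bins by GFP to DsRed ratio, PSI derived from sequencing read proportions per bin multiplied by bin number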
Experimental Parameters: c terminus: a fixed tail appended
Listing of recorded protein stability index by entry.
Lab note: jot the number down without any unit.

See these solved cases before continuing.
SCTIIFLASIFQLAMMTTALLHQA [W16M] | 3.11
YCTIIFLASIFQLAMWTTALLHQA [S1Y] | 1.75
SCTIIFLASIFQLNMWTTALLHQA [A14N] | 2.62

QUERY: Endpoint output: protein stability index of SCTIIFLASIFQLAMHTTALLHQA [W16H] . Value?
RESULT: 1.8
